The entries below pair compounds with IC50 values for CD73 (Homo sapiens (Human)), as found in several publications.
MEASUREMENT LABEL: IC50

compound=O=C(CP(=O)(O)O)N(Cc1ccccc1)C[C@H]1O[C@@H](n2cnc3c(NC4CCCC4)nc(Cl)nc32)[C@H](O)[C@@H]1O measurement_label=IC50 result_value="< 100 nM"
compound=C[C@H](O)C(=O)N1CCC(NC(=O)O[C@@H]2CCN(c3cn[nH]c(=O)c3Cl)C2)CC1 measurement_label=IC50 result_value="1 to 10000 nM"
compound=O=P(O)(O)C(CO)(CO)OC[C@H]1O[C@@H](c2cnn3c(NC4CCCC4)cc(Cl)nc23)[C@H](O)[C@@H]1O measurement_label=IC50 result_value="0.5 to 1 nM"
compound=C=CS(=O)(=O)N[C@H]1CC[C@H](NC(=O)O[C@@H]2CCN(c3cn[nH]c(=O)c3Cl)C2)CC1 measurement_label=IC50 result_value="1 to 10000 nM"
compound="O=P(O)(O)CP(=O)(O)OC[C@H]1O[C@@H](n2cnc3c(NC4C5CC6CC(C5)CC4C6)nc(Cl)nc32)[C@@H](O)C1O (some centres unmarked)" measurement_label=IC50 result_value="< 10 nM"
compound="O=P(O)(O)[C@](CO)(COCc1ccccc1)OC[C@H]1O[C@@H](n2ncc3c(NC4CCCC4)nc(Cl)nc32)[C@H](O)[C@@H]1O (racemic)" measurement_label=IC50 result_value="≤ 100 nM"
compound=O=P(O)(O)CS(=O)(=O)C[C@H]1O[C@@H](n2ncc3c(NCc4ccc(F)cc4)nc(Cl)nc32)[C@H](O)[C@@H]1O measurement_label=IC50 result_value="≤ 500 nM"
compound="CC(CO)(OC[C@H]1O[C@@H](n2cnc3c(NC4CCCC4)nc(Cl)nc32)[C@H](O)[C@@H]1O)P(=O)(O)O (some centres unmarked)" measurement_label=IC50 result_value="≤ 100 nM"
compound=C[C@@](CO)(OC[C@H]1O[C@@H](n2ncc3c(NC4CCCC4)nc(Cl)nc32)[C@H](O)[C@@H]1O)P(=O)(O)O measurement_label=IC50 result_value="≤ 100 nM"
compound=O=C(N[C@H]1CC[C@H](NC(=O)c2cccnc2)CC1)O[C@@H]1CCN(c2cn[nH]c(=O)c2Cl)C1 measurement_label=IC50 result_value="1 to 10000 nM"
compound=O=P(O)(O)COC[C@H]1O[C@@H](n2nnc3c(NC4CCC4)cc(Cl)nc32)[C@H](O)[C@@H]1O measurement_label=IC50 result_value="≤ 100 nM"
compound=C[C@](CS(C)(=O)=O)(OC[C@H]1O[C@@H](n2ncc3c(NC4CCCC4)nc(Cl)nc32)[C@H](O)[C@@H]1O)P(=O)(O)O measurement_label=IC50 result_value="≤ 100 nM"
compound=C[C@@H]1CCCC[C@H]1NC(=O)O[C@@H]1CCN(c2cn[nH]c(=O)c2Cl)C1 measurement_label=IC50 result_value="1 to 10000 nM"
compound="CC1CCCC1NC(=O)O[C@@H]1CCN(c2cnn(CCO)c(=O)c2Cl)C1 (some centres unmarked)" measurement_label=IC50 result_value="1 to 10000 nM"
compound=O=P(O)(O)CP(=O)(O)OC[C@H]1C[C@@H](c2ccc3c(N[C@@H]4CCc5ccc(F)cc54)nc(Cl)nn23)[C@H](O)[C@@H]1O measurement_label=IC50 result_value="3.4 nM"
compound=O=P(O)(O)CS(=O)(=O)C[C@H]1O[C@@H](n2cnc3c(NC4CCCC4)nc(Cl)nc32)[C@H](O)[C@@H]1O measurement_label=IC50 result_value="≤ 500 nM"
compound=O=C(NC1Cc2ccccc2C1)O[C@@H]1CCN(c2cn[nH]c(=O)c2Cl)C1 measurement_label=IC50 result_value="1 to 10000 nM"

----------
Dear all, I have gathered published IC50 values for CD73 (Homo sapiens (Human)); the list follows.
MEASUREMENT LABEL: IC50

compound=NC(=O)c1cc(S(=O)(=O)Nc2ccc(CCCCNc3nc(N)n4nc(-c5ccco5)nc4n3)cc2)cc(Cl)c1O measurement_label=IC50 result_value="> 1000 nM"
compound=O=C(NCC1CCNCC1)O[C@@H]1CCN(c2cn[nH]c(=O)c2Cl)C1 measurement_label=IC50 result_value="1 to 10000 nM"
compound=C[C@@H](Nc1nc(Cl)nc2c1cnn2[C@@H]1O[C@H](COCP(=O)(O)O)[C@@H](O)[C@H]1O)C1CC1 measurement_label=IC50 result_value="≤ 500 nM"
compound="CCOCC(C)(OC[C@H]1O[C@@H](n2ncc3c(NC4CCCC4)nc(Cl)nc32)[C@H](O)[C@@H]1O)P(=O)(O)O (some centres unmarked)" measurement_label=IC50 result_value="≤ 100 nM"
compound=CC(C)(C(=O)N1CCC(NC(=O)O[C@@H]2CCN(c3cn[nH]c(=O)c3Cl)C2)CC1)c1ccc(F)cc1 measurement_label=IC50 result_value="1 to 10000 nM"
compound=O=P(O)(O)CP(=O)(O)OC[C@H]1C[C@@H](c2ccc3c(N[C@@H]4CCc5cc(F)ccc54)nc(Cl)nn23)[C@H](O)[C@@H]1O measurement_label=IC50 result_value="3.95 nM"
compound="Cc1cccc2c1NP(=O)(CC(=O)N(C)C[C@H]1O[C@@H](n3cnc4c(NC5CCCC5)nc(Cl)nc43)[C@H](O)[C@@H]1O)OC2 (some centres unmarked)" measurement_label=IC50 result_value="> 1000 nM"
compound=O=P(O)(O)CP(=O)(O)OC[C@H]1C[C@@H](c2ccc3c(N[C@H]4CCc5ccc(C(F)(F)F)cc54)nc(Cl)nn23)[C@H](O)[C@@H]1O measurement_label=IC50 result_value="354 nM"
compound=O=P(O)(O)COC[C@H]1O[C@@H](n2ncc3c(N4CCOCC4)nc(Cl)nc32)[C@H](O)[C@@H]1O measurement_label=IC50 result_value="≤ 500 nM"
compound="O=C(NC1CCC(C(F)(F)F)CC1)O[C@@H]1CCN(c2cn[nH]c(=O)c2Cl)C1 (some centres unmarked)" measurement_label=IC50 result_value="1 to 10000 nM"
compound="O=C(N[C@H]1CC[C@@H](NC2CC3CCC2C3)CC1)O[C@@H]1CCN(c2cn[nH]c(=O)c2Cl)C1 (some centres unmarked)" measurement_label=IC50 result_value="1 to 10000 nM"

----------
pIC50: −log10 of the molar value.
Before we begin, note that these pIC50 values for CD73 (Homo sapiens (Human)) originate from several publications.
MEASUREMENT LABEL: pIC50

molecule=O=C(NC1CCOCC1)O[C@@H]1CCN(c2cn[nH]c(=O)c2Cl)C1 measured_on="CD73 (Homo sapiens (Human))" result_value="5.00 to 9.00"
molecule=CCN(C[C@H]1O[C@@H](n2cnc3c(NC4CCCC4)nc(Cl)nc32)[C@H](O)[C@@H]1O)C(=O)CP(=O)(O)O measured_on="CD73 (Homo sapiens (Human))" result_value="> 7.00"
molecule=C[C@]1(O)C[C@@H](CNc2nc(Cl)nc3c2cnn3[C@@H]2O[C@H](COCP(=O)(O)O)[C@@H](O)[C@H]2O)C1 measured_on="CD73 (Homo sapiens (Human))" result_value="≥ 6.30"
molecule="O=P(O)(O)CP(=O)(O)OC[C@H]1O[C@@H](n2cnc3c(-n4c5ccccc5c5ccccc54)nc(Cl)nc32)C(O)C1O (stereo partly shown)" measured_on="CD73 (Homo sapiens (Human))" result_value="7.00 to 8.00"
molecule="O=C(NC1CCc2[nH]ncc2C1)O[C@@H]1CCN(c2cn[nH]c(=O)c2Cl)C1 (stereo partly shown)" measured_on="CD73 (Homo sapiens (Human))" result_value="5.00 to 9.00"
molecule=O=C(N[C@@H]1CCC[C@@H]1O)O[C@@H]1CCN(c2cn[nH]c(=O)c2Cl)C1 measured_on="CD73 (Homo sapiens (Human))" result_value="5.00 to 9.00"
molecule=CCC1(NC(=O)O[C@@H]2CCN(c3cn[nH]c(=O)c3Cl)C2)CCCC1 measured_on="CD73 (Homo sapiens (Human))" result_value="5.00 to 9.00"
molecule=C[C@](CO)(OC[C@H]1O[C@@H](n2ncc3c(NC4CCCC4)nc(OCCO)nc32)[C@H](O)[C@@H]1O)P(=O)(O)O measured_on="CD73 (Homo sapiens (Human))" result_value="≥ 7.00"
molecule="O=P(O)(O)CP(=O)(O)OC[C@H]1O[C@@H](n2cnc3c(Nc4ccc5cc6ccccc6cc5c4)nc(Cl)nc32)C(O)C1O (stereo partly shown)" measured_on="CD73 (Homo sapiens (Human))" result_value="7.00 to 8.00"
molecule=COC[C@@](Cc1nn[nH]n1)(OC[C@H]1O[C@@H](c2ccc3c(NC4CCCC4)nc(Cl)nn23)[C@H](O)[C@@H]1O)P(=O)(O)O measured_on="CD73 (Homo sapiens (Human))" result_value="7.00 to 9.00"
molecule=O=C(NCCCO)O[C@@H]1CCN(c2cn[nH]c(=O)c2Cl)C1 measured_on="CD73 (Homo sapiens (Human))" result_value="5.00 to 9.00"
molecule="COCC(OC[C@H]1O[C@@H](n2ncc3c(NC4CCCC4)nc(Cl)nc32)[C@H](O)[C@@H]1O)P(=O)(O)O (stereo partly shown)" measured_on="CD73 (Homo sapiens (Human))" result_value="≥ 7.00"
molecule=O=C(NC12CC(C1)C2)O[C@@H]1CCN(c2cn[nH]c(=O)c2Cl)C1 measured_on="CD73 (Homo sapiens (Human))" result_value="5.00 to 9.00"
molecule=CNC(=O)N[C@H]1CC[C@H](NC(=O)O[C@@H]2CCN(c3cn[nH]c(=O)c3Cl)C2)CC1 measured_on="CD73 (Homo sapiens (Human))" result_value="5.00 to 9.00"
molecule=CCS(=O)(=O)N1CCC(NC(=O)N[C@@H]2CCN(c3cn[nH]c(=O)c3Cl)C2)CC1 measured_on="CD73 (Homo sapiens (Human))" result_value="5.00 to 9.00"
molecule=C[C@](CO)(OC[C@H]1O[C@@H](c2ccc3c(NC4CCCC4)nc(Cl)nn23)[C@H](O)[C@@H]1O)P(=O)(O)O measured_on="CD73 (Homo sapiens (Human))" result_value="7.00 to 9.00"
